biological target: 9xHis-BRD4-BD1 (Homo sapiens); construct: 30 nM for His9-tagged BRD4-BD1 bromodomain and 50 nM for the biotinylated peptide were used; experiment: AlphaScreen binding assay with His9-tagged BRD4-BD1 (1% DMSO); details: 1% v/v DMSO; mean of three independent trials in duplicate; read-out: BRD4-BD1 IC50 (apparent binding)
endpoint: IC50 (µM)
Number in µM, nothing else.

Note to self: IC50 recorded for Cc1ccc(C(C)C)cc1Oc1nccc(-c2c(-c3ccc(C(F)(F)F)cc3)ncn2C2CCN(CCOCCOCCNC(=O)COc3cccc4c3C(=O)N(C3CCC(=O)NC3=O)C4=O)CC2)n1 (stereo not shown) [dBRD4-BD1] was 1.36
